# melting point per record follows

>  <Compound>
COc1c(C)cc(-c2c3ccccc3c(C)c3sc4ccccc4c23)cc1C

>  <melting point>
154 to 156 °C

$$$$
>  <Compound>
CC(CS)C(=O)Nc1cncc(C(=O)O)c1 (configuration not stated)

>  <melting point>
160 to 165 °C

$$$$
>  <Compound>
O=C(Cc1ccc2c(c1)CCC(NS(=O)(=O)c1cccs1)C2)Nc1ccc(C(=O)O)cc1 (configuration not stated)

>  <melting point>
250 to 252 °C

$$$$
>  <Compound>
COc1ccc2c(c1)CCC1CCNC(=O)C(CC3(C)OCCO3)=C21 (configuration not stated)

>  <melting point>
192 to 194 °C

$$$$
>  <Compound>
COC(=O)c1ccc(Cl)c(C#N)c1

>  <melting point>
193 °C

$$$$
>  <Compound>
CC(C)C1SCC(=O)CC1=O (configuration not stated)

>  <melting point>
71 °C

$$$$
>  <Compound>
Nc1cccc(C=Cc2ccc3ccccc3n2)c1

>  <melting point>
158 to 160 °C

$$$$
>  <Compound>
COc1ccc(OCc2ccccn2)cc1/C=C/c1cc(/C=C/c2ccc3cc[nH]c3c2)n[nH]1

>  <melting point>
111 to 120 °C

$$$$

In: Field request: melting point | item: CCSC1(c2cc(F)cc(OCc3ccc4c(ccc(=O)n4C)c3)c2)CCOCC1
Out: 68 to 72 °C

In: Which melting point value is on record for CC(=O)NNc1ccnc2c(NC(=O)c3ccccc3[N+](=O)[O-])cccc12 ?
Out: 232 to 235 °C

In: Value lookup for melting point; key = Cc1cc(C2=NNC(C(N)=O)Cc3cc4c(cc32)OCO4)ccc1[N+](=O)[O-] (configuration not stated)
Out: 246 to 249 °C

In: What does the record list as melting point for C/C(=C\c1ccc(C=O)cc1)c1ccc2c(c1)C(C)(C)CCO2 ?
Out: 102 to 104 °C

In: State the recorded melting point for this entry: CC1=C(Cl)C(c2ccccc2)C([N+](=O)[O-])=C(C)N1 (configuration not stated)
Out: 192 °C

In: Given the entry CCCCCN1C(=O)C(NC(=O)OC(C)(C)C)c2ccccc21 (configuration not stated) , report its measured melting point.
Out: 145 to 147 °C

In: Could you tell me which melting point is on file for COC(=O)c1ccc(N=Cc2cccc(Cl)c2)cn1 ?
Out: 139 to 142 °C

In: Please give the measured melting point for this compound: C=CCC=CCC=CCCCCCCCc1cccc(O)c1
Out: 60 °C

In: Consider the compound CC(C)CC(=O)Nc1cccc(-c2ccnc3c(-c4cccs4)cnn23)c1 and give its measured melting point.
Out: 148 to 150 °C

In: What does the record list as melting point for O=C(NC1CC1)c1ccccc1SSc1ccccc1C(=O)NC1CC1 ?
Out: 257 to 259 °C
